Reference source for all entries: the supplement of paper PMC10127200

# Test system: A549
# test_method_notes: Euclidean distance of Cell Painting phenotypic profile (signed KS, 77 features) to DMSO centroid (dimensionless distance); 5 or 10 uM (library dependent); higher = stronger phenotypic change vs DMSO (phenoactivity)
# condition_description: 48 h
Counter-ions that a name gives are not always drawn.
Give met when the value for Euclidean distance is at least 1. Give not met when it is less.

Solved cases below.
# molecule, test_system, label
rows = [
    ("CNCc1ccc(-c2[nH]c3cc(F)cc4c3c2CCNC4=O)cc1", "A549", "met"),
    ("CCCNCC(O)COc1ccccc1C(=O)CCc1ccccc1 (configuration not stated) [Propafenone HCl]", "A549", "met"),
    ("COC(=O)N[C@H](C(=O)N1CCC[C@H]1c1ncc(-c2ccc(-c3ccc(-c4cnc([C@@H]5CCCN5C(=O)[C@@H](NC(=O)OC)C(C)C)[nH]4)cc3)cc2)[nH]1)C(C)C", "A549", "met"),
    ("CCCCNc1cc(C(=O)O)cc(S(N)(=O)=O)c1Oc1ccccc1 [Bumetanide]", "A549", "met"),
    ("CCCCCCCCN=C(N)NC(N)=NCc1ccc(Cl)c(Cl)c1 [Olanexidine Hydrochloride semihydrate]", "A549", "met"),
]

Request: Say whether "Cn1cc(-c2ccc3nnc(Sc4ccc5ncccc5c4)n3n2)cn1" shows Euclidean distance of 1 or more.
Result: met

Request: Same for CC1(C)[C@@H](O[C@H]2O[C@H](C(=O)O)[C@@H](O)[C@H](O)[C@H]2O[C@@H]2O[C@H](C(=O)O)[C@@H](O)[C@H](O)[C@H]2O)CC[C@]2(C)[C@H]3C(=O)C=C4[C@@H]5C[C@@](C)(C(=O)O)CC[C@]5(C)CC[C@@]4(C)[C@]3(C)CC[C@@H]12 [Diammonium Glycyrrhizinate]
Result: met

Request: Here is the next molecule: O=C(CCCCCN1C(=O)c2cccc3cccc(c23)C1=O)NO [Scriptaid]
Result: met

Request: Ok, now C1N2CN3CN1CN(C2)C3 [Methenamine]
Result: not met

Request: Further, for CCOc1ccc(Cc2cc([C@@H]3O[C@H](CO)[C@@H](O)[C@H](O)[C@H]3O)ccc2Cl)cc1 [Dapagliflozin propanediol monohydrate] ?
Result: not met

* * *

# Test system: HEPG2
# test_method_notes: Euclidean distance of Cell Painting phenotypic profile (signed KS, 77 features) to DMSO centroid (dimensionless distance); 5 or 10 uM (library dependent); higher = stronger phenotypic change vs DMSO (phenoactivity)
# condition_description: 48 h
Where a name gives a salt, the structure may show the parent alone.
Measured Euclidean distance accompanies every entry in the list below.
I'd appreciate a reply containing only the number, no unit.

The cases that follow already have their Euclidean distance on record.
# molecule, Euclidean distance
records = [
    ("C[C@]12CC[C@@H]3c4ccc(O)cc4CC[C@H]3[C@@H]1CCC2=O", 0.472),
    ("CC(C)(C)c1cc(C(C)(C)C)c(NC(=O)c2c[nH]c3ccccc3c2=O)cc1O", 1.96),
    ("Cc1[nH]c(/C=C2\\C(=O)Nc3ccc(S(=O)(=O)N(C)c4cccc(Cl)c4)cc32)c(C)c1C(=O)N1CCN(C)CC1", 1.47),
    ("C[C@H]1CNCCCN1S(=O)(=O)c1cccc2cncc(F)c12 [Ripasudil (K-115) hydrochloride dihydrate]", 1.34),
    ("CC(C)[C@H](N)C(=O)OCCOCn1cnc2c(=O)nc(N)[nH]c21 [Valaciclovir HCl]", 1.28),
    ("Cc1nc(NC(=O)N2CCC[C@H]2C(N)=O)sc1-c1ccnc(C(C)(C)C(F)(F)F)c1", 1.09),
    ("COc1ccc2c(c1)C(=O)N(CCc1ccc(S(=O)(=O)NC(=O)NC3CCCCC3)cc1)C(=O)C2(C)C", 3.11),
    ("CN(C)CCN1C(=O)c2cccc3cc(N)cc(c23)C1=O [Amonafide]", 4.06),
]

Request: Which Euclidean distance value belongs to "CCC(CC)(NC(=O)C(C)C)C(=O)N[C@@H](CCCN=C(N)N)C(=O)NC1(C(=O)NC(c2ccc(F)cc2)c2ccc(F)cc2)CCCC1" ?
Result: 0.712

Request: Same question for CN(C)CCC(c1ccc(Br)cc1)c1ccccn1 (stereo not drawn) [Brompheniramine hydrogen maleate] please.
Result: 0.5

Request: Would you kindly repeat that for Nc1ccc(S(=O)(=O)NC(=O)c2ccccc2)cc1 [Sulfabenzamide] ?
Result: 0.665

Request: Try COc1cccc2c1C(=O)c1c(O)c3c(c(O)c1C2=O)C[C@@](O)(C(C)=O)C[C@@H]3O[C@H]1C[C@H](N)[C@H](O)[C@H](C)O1 [Daunorubicin HCl] next.
Result: 4.88

Request: Next molecule: "N[C@@H](CC(=O)O)C(=O)O"
Result: 0.455
